The measurements presented in this section are drawn from ChEMBL document CHEMBL1134937.

- targetDesc: Adrenergic receptor alpha-1 (Rattus norvegicus, UniProt P15823+P23944+P43140)
- assayNotes: Binding affinity towards Alpha-1 adrenergic receptor was determined by competitive displacement assays using rat brain homogenate with [3H]prazosin as the competitive ligand
recordedMetric: Ki

Short answer for "COC(=O)[C@@H]1Cc2ccccc2N1C(=O)CN1CCN(Cc2ccc(Cl)cc2)CC1" : Ki was > 1000 nM

Short answer for "C[C@@H]1Cc2ccccc2N1C(=O)CN1CCN(Cc2ccccc2F)CC1" : Ki was > 10000 nM

Others:
Short answer for "C[C@@H]1Cc2ccccc2N1C(=O)CN1CCN(Cc2ccc(F)c(F)c2Cl)CC1" : Ki was > 1000 nM
